Assignment: determine reported MFI for the given binders.
Biological target: monkey DLL3 on CHO-K1-cyno DLL3 cells (cynomolgus monkey)
Sequence (chain, as listed by the source limits assumed): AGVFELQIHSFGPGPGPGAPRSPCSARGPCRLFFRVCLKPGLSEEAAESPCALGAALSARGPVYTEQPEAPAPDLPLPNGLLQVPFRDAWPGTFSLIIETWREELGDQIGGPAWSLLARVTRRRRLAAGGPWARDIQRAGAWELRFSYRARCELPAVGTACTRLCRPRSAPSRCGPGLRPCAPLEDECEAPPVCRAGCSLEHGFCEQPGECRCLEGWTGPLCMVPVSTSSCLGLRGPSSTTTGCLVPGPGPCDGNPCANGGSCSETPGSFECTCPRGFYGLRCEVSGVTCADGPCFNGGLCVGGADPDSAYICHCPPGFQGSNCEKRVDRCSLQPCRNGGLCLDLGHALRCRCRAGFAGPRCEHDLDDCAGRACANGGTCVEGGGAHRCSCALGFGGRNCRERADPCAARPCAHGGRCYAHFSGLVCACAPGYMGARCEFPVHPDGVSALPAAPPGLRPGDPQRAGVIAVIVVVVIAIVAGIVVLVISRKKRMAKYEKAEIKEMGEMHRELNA
Test: FACS, CHO-K1-cyno DLL3 cells, 0.00128 nM antibody
Answers are plain numbers, in MFI.

Some binders with recorded MFI:
- Hab014VL2VH1-hFc (scFv, part only; not given: scFv linker and human IgG1 Fc, V domains shown, not shown: another chain or arm of the molecule; a dimerising Fc or GST; small tags and cut ends) VL: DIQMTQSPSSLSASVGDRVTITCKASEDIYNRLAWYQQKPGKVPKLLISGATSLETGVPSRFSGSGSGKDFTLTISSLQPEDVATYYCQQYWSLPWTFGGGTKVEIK VH: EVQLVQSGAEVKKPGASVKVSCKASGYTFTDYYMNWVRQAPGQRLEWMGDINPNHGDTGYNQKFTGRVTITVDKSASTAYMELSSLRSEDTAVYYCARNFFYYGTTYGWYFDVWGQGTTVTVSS: 200
- Hab014VL3VH1-hFc (scFv, part only; not given: VL-VH linker and human IgG1 Fc, V domains shown, not shown: another chain or arm of the molecule; a dimerising Fc or GST; small tags and cut ends) VL: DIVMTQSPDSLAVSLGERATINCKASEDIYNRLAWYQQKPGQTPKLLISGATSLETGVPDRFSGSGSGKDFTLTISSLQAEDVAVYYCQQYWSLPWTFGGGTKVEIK VH: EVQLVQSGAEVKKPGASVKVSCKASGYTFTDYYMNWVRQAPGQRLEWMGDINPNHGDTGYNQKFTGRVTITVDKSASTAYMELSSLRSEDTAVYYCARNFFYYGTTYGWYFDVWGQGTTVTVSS: 180

Now let's try a different one.
Prompt: # MFI lookup, item Hab015VL4VH6a-hFc (scFv, part only; not given: scFv linker and human IgG1 Fc, V domains shown, not shown: another chain or arm of the molecule; a dimerising Fc or GST; small tags and cut ends) VL: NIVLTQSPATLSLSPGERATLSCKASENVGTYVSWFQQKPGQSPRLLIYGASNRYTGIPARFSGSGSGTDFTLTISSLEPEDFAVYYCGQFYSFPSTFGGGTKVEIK VH: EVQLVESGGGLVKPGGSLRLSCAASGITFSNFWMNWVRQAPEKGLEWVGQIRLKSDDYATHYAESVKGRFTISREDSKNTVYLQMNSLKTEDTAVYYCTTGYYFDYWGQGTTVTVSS
Response: 118
